protocol.summary: activity coefficient (dimensionless); of the first substance listed, at infinite dilution; xn = mol fraction of the nth substance listed
condition.context: 338.15 K; 101 kPa; Liquid; Chromatography; x1 = 0
Listed next: entries and their corresponding activity coefficient.

| compound | activity coefficient |
| --- | --- |
| C=CCCCCC [1-heptene] + COCC[N+]1(C)CCCCC1.O=S(=O)([N-]S(=O)(=O)C(F)(F)F)C(F)(F)F | 11.4 |
| C1CCCCC1 [cyclohexane] + COCC[N+]1(C)CCCCC1.O=S(=O)([N-]S(=O)(=O)C(F)(F)F)C(F)(F)F | 8.71 |
| CCC(C)(C)OC [2-methoxy-2-methylbutane] + COCC[N+]1(C)CCCCC1.O=S(=O)([N-]S(=O)(=O)C(F)(F)F)C(F)(F)F | 3.73 |
| CC#N [acetonitrile] + COCC[N+]1(C)CCCCC1.O=S(=O)([N-]S(=O)(=O)C(F)(F)F)C(F)(F)F | 0.473 |
